Measured values drawn from ChEMBL document CHEMBL1140080 for this set.

test system: DU-145; assay: Antiproliferative activity against human DU145 cells after 72 hrs by MTT assay; type: functional, cell-based; settings: DU-145, 72 h
The reader will find reported log10 of IC50 values listed item by item below.
parameter.measured: log10 of IC50 (log10 of the value in µM)

Nc1ccc(-c2ccc(/C=C/C(=O)O)cc2Cl)cc1C12CC3CC(CC(C3)C1)C2: 0.11
CC(=O)Nc1ccc(-c2ccc(/C=C/C(=O)O)cc2Cl)cc1C12CC3CC(CC(C3)C1)C2: 0.70
CC1(c2cc(-c3ccc(/C=C/C(=O)O)cc3Cl)ccc2O)CCCCC1: 0.90
O=C(O)/C=C/c1ccc(-c2ccc(F)c(C34CC5CC(CC(C5)C3)C4)c2)c(Cl)c1: 1.20
O=C(O)/C=C/c1ccc(-c2ccc(O)c(C34CC5CC(CC(C5)C3)C4)c2)c(Cl)c1: -0.32
O=C(O)/C=C/c1ccc(-c2ccc(O)c(C34CC5CC(CC3C5)C4)c2)c(Cl)c1: 0.90

----------
Reported pIC50 values for a set of compounds
assay: Growth inhibition of HMVE cells after 72 hrs by alamar blue method; type: cell-based; conditions: Homo sapiens
pIC50: −log10 of the molar value.
parameter.measured: pIC50

Cc1cc(C)c(-c2cc(-c3ccc4cc(C(=O)O)ccc4c3C)ccc2O)c(C)c1: < 6.30
CC(c1cc(-c2ccc3cc(C(=O)O)ccc3c2)ccc1O)C12CC3CC(CC(C3)C1)C2 (centres undefined): < 6.30
CC1(C)CC(c2cc(-c3ccc4cc(C(=O)O)ccc4c3)ccc2O)CC(C)(C)C1: 6.30
CC1C2(c3cc(-c4ccc(/C=C/C(=O)O)cc4)ccc3O)CCC(C2)C1(C)C (centres undefined): < 6.30
CC1=C(/C=C/C(C)=C/C=C/C(C)=C/C(=O)O)C(C)(C)CCC1 [TRETINOIN]: < 6.30
O=C(O)c1ccc2cc(-c3ccc(O)c(C4C5CC6CC(C5)CC4C6)c3)ccc2c1 (centres undefined): < 6.30
O=C(O)/C=C/c1ccc(-c2ccc(O)c(C34CC5CC(CC(C5)C3)C4)c2)cc1 [ADAROTENE]: 7.00
O=C(O)c1ccc2cc(-c3ccc(O)c([C@@H]4CC[C@@H]5CCCC[C@H]5C4)c3)ccc2c1: < 6.30
Cc1c(-c2ccc(O)c(-c3ccc4c(c3)C(C)(C)CCC4(C)C)c2)ccc2cc(C(=O)O)ccc12: 6.22
O=C(O)c1ccc2c(Cl)c(-c3ccc(O)c(C45CC6CC(CC(C6)C4)C5)c3)ccc2c1: < 6.30
Cc1c(-c2ccc(O)c(C34CC5CC(CC(C5)C3)C4)c2)ccc2cc(C(=O)O)ccc12: 6.47
O=C(O)c1ccc2cc(-c3ccc(O)c([C@@H]4CCC[C@H]5CCCCC54)c3)ccc2c1 (some centres undefined): < 6.30
CC(C)(C)c1cc(-c2ccc3cc(C(=O)O)ccc3c2)ccc1O: < 6.30
O=C(O)c1ccc2cc(-c3cccc(C45CC6CC(CC(C6)C4)C5)c3)ccc2c1: < 6.30

----------
tested on: KG-1; test: Induction of apoptosis in human KG1 cells at 1.0 uM […] by acridine orange staining; type: functional
parameter.measured: Activity (%)

CC1(c2cc(-c3ccc(/C=C/C(=O)O)cc3Cl)ccc2O)SCCCS1: 5
O=C(O)/C=C/c1ccc(-c2ccc(O)c(C34CC5CC(CC(C5)C3)C4)c2)c(Cl)c1: 30
CC(=O)Nc1ccc(-c2ccc(/C=C/C(=O)O)cc2Cl)cc1C12CC3CC(CC(C3)C1)C2: 3
O=C(O)/C=C/c1ccc(-c2ccc(F)c(C34CC5CC(CC(C5)C3)C4)c2)c(Cl)c1: 0
O=C(O)/C=C/c1ccc(-c2ccc(F)cc2)c(Cl)c1: 0
CC1(c2cc(-c3ccc(/C=C/C(=O)O)cc3Cl)ccc2O)CCCCC1: 0
Nc1ccc(-c2ccc(/C=C/C(=O)O)cc2Cl)cc1C12CC3CC(CC(C3)C1)C2: 10
CC(C)(C)C#Cc1cc(-c2ccc(/C=C/C(=O)O)cc2Cl)ccc1O: 0
CCC(CC)(CC)c1cc(-c2ccc(/C=C/C(=O)O)cc2Cl)ccc1O: 3
O=C(O)/C=C/c1ccc(-c2ccc(O)c(C34CC5CC(CC3C5)C4)c2)c(Cl)c1: 2
Cc1cccc(C)c1-c1cc(-c2ccc(/C=C/C(=O)O)cc2Cl)ccc1O: 0
CC12CC3CC(C)(C1)CC(c1cc(-c4ccc(/C=C/C(=O)O)cc4Cl)ccc1O)(C3)C2: 0

----------
experiment: Antiproliferative activity against human H292 cells after 72 hrs by MTT assay; assay type: functional, cell-based; details: NCI-H292, 72 h
parameter.measured: IC50 (µM)

CC1(c2cc(-c3ccc(/C=C/C(=O)O)cc3Cl)ccc2O)CCCCC1: 3.9
O=C(O)/C=C/c1ccc(-c2ccc(O)c(C34CC5CC(CC(C5)C3)C4)c2)c(Cl)c1: 0.4
CC12CC3CC(C)(C1)CC(c1cc(-c4ccc(/C=C/C(=O)O)cc4Cl)ccc1O)(C3)C2: 3.6
O=C(O)/C=C/c1ccc(-c2ccc(F)c(C34CC5CC(CC(C5)C3)C4)c2)c(Cl)c1: 6
O=C(O)/C=C/c1ccc(-c2ccc(F)cc2)c(Cl)c1: 47
O=C(O)/C=C/c1ccc(-c2ccc(O)c(C34CC5CC(CC3C5)C4)c2)c(Cl)c1: 6.8
Nc1ccc(-c2ccc(/C=C/C(=O)O)cc2Cl)cc1C12CC3CC(CC(C3)C1)C2: 6

----------
assay: Growth inhibition of HMVE cells at 0.5 uM after 72 hrs by alamar blue method; type: cell-based; details: human, HMVE cells; read-out: GI
Items are presented alongside their recorded inhibition at 72 h, 0.5 µM.
parameter.measured: inhibition at 72 h, 0.5 µM (%)

O=C(O)c1ccc2cc(-c3ccc(O)c([C@@H]4CCC[C@H]5CCCCC54)c3)ccc2c1 (some centres undefined): 10
O=C(O)c1ccc2cc(-c3ccc(O)c([C@@H]4CC[C@@H]5CCCC[C@H]5C4)c3)ccc2c1: 0
CC(c1cc(-c2ccc3cc(C(=O)O)ccc3c2)ccc1O)C12CC3CC(CC(C3)C1)C2 (centres undefined): 30
Cc1c(-c2ccc(O)c(C34CC5CC(CC(C5)C3)C4)c2)ccc2cc(C(=O)O)ccc12: 65

----------
Entries annotated with measured pIC50
target: Tyrosine-protein phosphatase non-receptor type 11 (Homo sapiens, UniProt Q06124); experiment: Inhibition of SHP2 overexpressed in human KG1 cells
Sequence (Q06124 whole entry): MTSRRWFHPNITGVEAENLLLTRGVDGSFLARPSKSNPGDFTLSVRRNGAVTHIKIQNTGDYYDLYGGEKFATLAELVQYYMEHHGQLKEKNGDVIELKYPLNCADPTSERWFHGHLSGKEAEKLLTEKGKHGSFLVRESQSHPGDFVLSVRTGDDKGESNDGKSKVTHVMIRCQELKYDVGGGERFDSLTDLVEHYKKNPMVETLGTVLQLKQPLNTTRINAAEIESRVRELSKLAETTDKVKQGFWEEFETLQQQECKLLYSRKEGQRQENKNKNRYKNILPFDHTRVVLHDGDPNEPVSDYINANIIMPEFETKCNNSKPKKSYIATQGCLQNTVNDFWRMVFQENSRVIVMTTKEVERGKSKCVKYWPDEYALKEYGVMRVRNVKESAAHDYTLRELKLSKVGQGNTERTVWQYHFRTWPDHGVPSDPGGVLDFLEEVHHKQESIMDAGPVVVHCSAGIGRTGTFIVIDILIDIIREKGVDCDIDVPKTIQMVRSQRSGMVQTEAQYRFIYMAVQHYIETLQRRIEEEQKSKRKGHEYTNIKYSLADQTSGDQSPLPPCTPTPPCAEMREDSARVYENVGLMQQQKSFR
pIC50: −log10 of the molar value.
parameter.measured: pIC50

O=C(O)/C=C/c1ccc(-c2ccc(F)cc2)c(Cl)c1: 3.30
CC12CC3CC(C)(C1)CC(c1cc(-c4ccc(/C=C/C(=O)O)cc4Cl)ccc1O)(C3)C2: 5.64
Cc1cccc(C)c1-c1cc(-c2ccc(/C=C/C(=O)O)cc2Cl)ccc1O: 4.70
CC1(c2cc(-c3ccc(/C=C/C(=O)O)cc3Cl)ccc2O)CCCCC1: 5.19
O=C(O)/C=C/c1ccc(-c2ccc(O)c(C34CC5CC(CC3C5)C4)c2)c(Cl)c1: 5.41
CC1(c2cc(-c3ccc(/C=C/C(=O)O)cc3Cl)ccc2O)SCCCS1: 4.99
Nc1ccc(-c2ccc(/C=C/C(=O)O)cc2Cl)cc1C12CC3CC(CC(C3)C1)C2: 5.74

----------
target: Tyrosine-protein phosphatase non-receptor type 11 (Homo sapiens, UniProt Q06124); assay: Inhibition of SHP2 overexpressed in human KG1 cells
Sorting guide: entries reporting IC50 beneath 2000 nM go in the 1 pile, the rest go in the 0 pile.

O=C(O)/C=C/c1ccc(-c2ccc(F)c(C34CC5CC(CC(C5)C3)C4)c2)c(Cl)c1: 0
CC(=O)Nc1ccc(-c2ccc(/C=C/C(=O)O)cc2Cl)cc1C12CC3CC(CC(C3)C1)C2: 0
O=C(O)/C=C/c1ccc(-c2ccc(O)c(C34CC5CC(CC(C5)C3)C4)c2)c(Cl)c1: 0
CC(C)(C)C#Cc1cc(-c2ccc(/C=C/C(=O)O)cc2Cl)ccc1O: 1
CCC(CC)(CC)c1cc(-c2ccc(/C=C/C(=O)O)cc2Cl)ccc1O: 0

----------
system: DU-145; assay: Antiproliferative activity against human DU145 cells at 5 uM after 72 hrs by MTT assay; type: functional; conditions: DU-145, 72 h
Reported inhibition at 5 µM by item:
parameter.measured: inhibition at 5 µM

Nc1ccc(-c2ccc(/C=C/C(=O)O)cc2Cl)cc1C12CC3CC(CC(C3)C1)C2: 79%
CC(=O)Nc1ccc(-c2ccc(/C=C/C(=O)O)cc2Cl)cc1C12CC3CC(CC(C3)C1)C2: 8%
CC1(c2cc(-c3ccc(/C=C/C(=O)O)cc3Cl)ccc2O)CCCCC1: 32%
CCC(CC)(CC)c1cc(-c2ccc(/C=C/C(=O)O)cc2Cl)ccc1O: 2%
CC12CC3CC(C)(C1)CC(c1cc(-c4ccc(/C=C/C(=O)O)cc4Cl)ccc1O)(C3)C2: 23%

----------
target: Nuclear receptor subfamily 0 group B member 2 (Homo sapiens); assay: Displacement of [5,5'-3H2]AHPN from human recombinant GST-SHP by liquid scintillation counting relative to 3-Cl-AHPC
Sequence (Q15466 whole entry): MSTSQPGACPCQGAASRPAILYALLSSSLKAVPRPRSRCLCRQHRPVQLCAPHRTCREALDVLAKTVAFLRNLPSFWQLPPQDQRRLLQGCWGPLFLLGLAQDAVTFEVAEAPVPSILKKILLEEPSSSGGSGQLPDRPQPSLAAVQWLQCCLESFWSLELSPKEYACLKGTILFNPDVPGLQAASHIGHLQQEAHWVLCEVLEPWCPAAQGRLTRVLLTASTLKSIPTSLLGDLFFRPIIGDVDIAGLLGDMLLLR
pIC50: −log10 of the molar value.
Entries and their pIC50
parameter.measured: pIC50

CCC(CC)(CC)c1cc(-c2ccc(/C=C/C(=O)O)cc2Cl)ccc1O: 5.10
O=C(O)/C=C/c1ccc(-c2ccc(O)c(C34CC5CC(CC(C5)C3)C4)c2)c(Cl)c1: 5.60
O=C(O)/C=C/c1ccc(-c2ccc(F)c(C34CC5CC(CC(C5)C3)C4)c2)c(Cl)c1: 6.00
CC12CC3CC(C)(C1)CC(c1cc(-c4ccc(/C=C/C(=O)O)cc4Cl)ccc1O)(C3)C2: 6.30
